Origin of values: the supplement of paper PMC6897291

Listing of recorded growth inhibition by drug alone by entry.
# System: U-2932
# Assay overview: growth inhibition by drug alone (1 - RLU/untreated control) (fraction); higher = stronger inhibition
# Stated conditions: 1000 nM; time (day): 5; 177Lu-lilotomab satetraxetan 0 ug/ml
Structures can show the parent of a compound that is named as a salt.
Measurement type: growth inhibition by drug alone

{"Molecule": "COc1cc(OC2CCN(C)CC2)ccc1Nc1ncc2c(n1)n(C1CCCC1)c(=O)n2C", "Meas value": -0.206}
{"Molecule": "Nc1ccccc1NC(=O)c1ccc(CNC(=O)OCc2cccnc2)cc1 [Entinostat (MS-275, SNDX-275)]", "Meas value": 0.874}
{"Molecule": "Cc1cnc(NC(=O)Nc2cc(Br)c(C)cc2OC[C@@H]2CNCCO2)cn1", "Meas value": 0.207}
{"Molecule": "Cc1nc(-c2ccc(OCC(C)C)c(C#N)c2)sc1C(=O)O [Febuxostat (Uloric)]", "Meas value": -0.00425}
{"Molecule": "COc1cc2nc(N3CCCN(C)CC3)nc(NC3CCN(Cc4ccccc4)CC3)c2cc1OC", "Meas value": 0.0688}
{"Molecule": "COc1ncc(-c2ccc3nccc(-c4ccnnc4)c3c2)cc1NS(=O)(=O)c1ccc(F)cc1F", "Meas value": 0.961}
{"Molecule": "O=C(/C=C/C#Cc1cccc(NS(=O)(=O)c2ccccc2)c1)NO [Oxamflatin]", "Meas value": 0.766}
{"Molecule": "CC(C)C[C@H](NC(=O)CNC(=O)c1cc(Cl)ccc1Cl)B(O)O", "Meas value": 0.984}
{"Molecule": "CN(Cc1cnc2nc(N)nc(N)c2n1)c1ccc(C(=O)N[C@@H](CCC(=O)O)C(=O)O)cc1 [Abitrexate (Methotrexate)]", "Meas value": 0.956}
{"Molecule": "Nc1nc(Cl)nc2c1ncn2[C@H]1C[C@H](O)[C@@H](CO)O1 [Cladribine]", "Meas value": 0.98}
{"Molecule": "C[C@@H](N)[C@H]1CC[C@H](C(=O)Nc2ccncc2)CC1", "Meas value": -0.115}
{"Molecule": "COc1ccc(CCN(C)CCCOc2ccc(S(=O)(=O)c3c(C(C)C)n(C)c4ccccc34)cc2)cc1OC", "Meas value": -0.0056}
{"Molecule": "CC1=C(/C=C/C(C)=C/C=C/C(C)=C/C(=O)Nc2ccc(O)cc2)C(C)(C)CCC1 [Fenretinide]", "Meas value": 0.216}
{"Molecule": "O=C1CN2Cc3c(ccc(Cl)c3Cl)N=C2N1 [Anagrelide hydrochloride]", "Meas value": 0.0817}
{"Molecule": "Nc1cccc2c1C(=O)N(C1CCC(=O)NC1=O)C2=O (stereo not drawn) [Pomalidomide]", "Meas value": 0.271}
{"Molecule": "Nc1ncn([C@H]2C[C@H](O)[C@@H](CO)O2)c(=O)n1 [Decitabine]", "Meas value": 0.37}
{"Molecule": "CN(C)CCCCSC(=N)N", "Meas value": -0.0703}
{"Molecule": "CO[C@H]1C[C@@H]2CC[C@@H](C)[C@@](O)(O2)C(=O)C(=O)N2CCCC[C@H]2C(=O)O[C@H]([C@H](C)C[C@@H]2CC[C@@H](OCCO)[C@H](OC)C2)CC(=O)[C@H](C)/C=C(\\C)[C@@H](O)[C@@H](OC)C(=O)[C@H](C)C[C@H](C)/C=C/C=C/C=C/1C [Everolimus (RAD001)]", "Meas value": 0.667}
{"Molecule": "O=C(O)C(Cc1c[nH]c2ccccc12)N1C(=O)c2ccccc2C1=O (stereo not drawn)", "Meas value": -0.0679}
{"Molecule": "COc1cc2c(cc1OC)CN(CCc1ccc(NC(=O)c3cccc4c(=O)c5cccc(OC)c5[nH]c34)cc1)CC2 [Elacridar]", "Meas value": 0.000978}
{"Molecule": "CN(C)c1nc(N(C)C)nc(N(C)C)n1 [Altretamine (Hexalen)]", "Meas value": -0.114}
{"Molecule": "NC(=O)c1ccc2nc(-c3ccc(Oc4ccc(Cl)cc4)cc3)[nH]c2c1", "Meas value": -0.0954}
{"Molecule": "Oc1cccc(-c2nc(N3CCOCC3)c3oc4ncccc4c3n2)c1", "Meas value": 0.891}
{"Molecule": "O=C(/C=C/c1cccc(S(=O)(=O)Nc2ccccc2)c1)NO [Belinostat (PXD101)]", "Meas value": 0.974}
{"Molecule": "CCc1cc(Nc2nccc(-c3c(-c4ccc(OC)c(C(=O)Nc5c(F)cccc5F)c4)nc4ccccn34)n2)c(OC)cc1N1CCC(N2CCN(S(C)(=O)=O)CC2)CC1", "Meas value": -0.0601}
{"Molecule": "CC(C)(C#N)c1cc(Cn2cncn2)cc(C(C)(C)C#N)c1 [Anastrozole]", "Meas value": -0.0146}
{"Molecule": "CC(C)(C)c1cnc(CSc2cnc(NC(=O)C3CCNCC3)s2)o1", "Meas value": 0.971}
{"Molecule": "N#Cc1ccc(COC[C@H]2O[C@@H](n3c(NCc4ccc(Cl)c(Cl)c4)nc4c(N)ncnc43)[C@H](O)[C@@H]2O)cc1", "Meas value": -0.0886}
{"Molecule": "Cc1cc(Nc2cc(N3CCN(C)CC3)nc(/C=C/c3ccccc3)n2)n[nH]1", "Meas value": 0.0189}
{"Molecule": "N#CC(c1ccnc(NCCc2cccnc2)n1)c1nc2ccccc2s1 (stereo not drawn) [JNK Inhibitor V]", "Meas value": -0.116}
{"Molecule": "COC(=O)C1=C(C)NC(C)=C(C(=O)OCCCN2CCC(c3ccccc3)(c3ccccc3)CC2)[C@H]1c1cccc([N+](=O)[O-])c1 [S-(+)-Niguldipine hydrochloride]", "Meas value": 0.032}
{"Molecule": "COc1cccc2c1C(=O)c1c(O)c3c(c(O)c1C2=O)C[C@@](O)(C(=O)CO)C[C@@H]3O[C@H]1C[C@H](N)[C@@H](O)[C@H](C)O1 [Epirubicin Hydrochloride]", "Meas value": 0.975}
{"Molecule": "Cn1cnc2c(F)c(Nc3ccc(Br)cc3Cl)c(C(=O)NOCCO)cc21 [AZD6244 (Selumetinib)]", "Meas value": -0.011}
